# study.system: human IL-21R expressed on cells (human, UniProt Q9HBE5 20-538)
# Sequence (Q9HBE5 20-538 limits assumed): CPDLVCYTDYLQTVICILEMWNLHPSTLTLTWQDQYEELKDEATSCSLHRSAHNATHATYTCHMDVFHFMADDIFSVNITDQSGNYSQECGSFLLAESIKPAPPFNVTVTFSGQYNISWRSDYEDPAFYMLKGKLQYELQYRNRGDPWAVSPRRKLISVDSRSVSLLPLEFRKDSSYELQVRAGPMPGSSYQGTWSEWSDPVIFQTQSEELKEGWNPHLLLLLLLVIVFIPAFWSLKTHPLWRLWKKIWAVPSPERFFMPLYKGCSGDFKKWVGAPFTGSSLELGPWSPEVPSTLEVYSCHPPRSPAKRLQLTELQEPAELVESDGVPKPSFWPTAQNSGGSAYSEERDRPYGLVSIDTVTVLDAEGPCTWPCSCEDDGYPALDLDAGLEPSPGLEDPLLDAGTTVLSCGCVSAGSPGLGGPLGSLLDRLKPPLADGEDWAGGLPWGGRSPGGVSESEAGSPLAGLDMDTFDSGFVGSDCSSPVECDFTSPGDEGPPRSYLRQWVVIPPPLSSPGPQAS
# assay.explanation: cell-based or functional assay
reported.property: IC50 (nM) in Human IL-21R-TF1 Neutralization Assay
The reply should contain only the number, in nM.

// known answers, use as guide
Exercise: Determine its reported IC50 (nM) in Human IL-21R-TF1 Neutralization Assay: scFv H3 (scFv) scFv: QVQLQESGPGLVKTSETLSLTCAVSGYSISSGYYWGWIRQPPGKGLEWIGSISHTGNTYYNPPLKSRVTISVDTSKNQFSLKLSSVTAADTAVYYCARFMGFGRPEYWGKGTLVTVSSGGGGSGGGGSGGGGSALSSELTQDPPVSVALGQTVTLTCQGDSLRTYYASWYQQKSGQAPILLLYGKHKRPSGIPDRFSGSTSGDTASLTITGAQAEDEADYYCNSRDSSGNPHVLFGGGTQLTVL
Key: 98.1

Exercise: Determine its reported IC50 (nM) in Human IL-21R-TF1 Neutralization Assay: scFv L11 (scFv) scFv: QVQLQESGPGLVKTSETLSLTCAVSGYSISSGYYWGWIRQPPGKGLEWIGSISHTGNTYYNPPLKSRVTISVDTSKNQFSLKLSSVTAADTAVYYCARGGGISRPEYWGKGTLVTVSSGGGGSGGGGSGGGGSALSSELTQDPPVSVALGQTVTLTCQGDSLRTYYASWYQQKSGQAPILLLYGKHKRPSGIPDRFSGSTSGDTASLTITGAQAEDEADYYCSSRSRHGNPHVLFGGGTQLTVL
Key: 38.3

Here's the next entry for you.
Exercise: Determine its reported IC50 (nM) in Human IL-21R-TF1 Neutralization Assay: scFv L2 (scFv) scFv: QVQLQESGPGLVKTSETLSLTCAVSGYSISSGYYWGWIRQPPGKGLEWIGSISHTGNTYYNPPLKSRVTISVDTSKNQFSLKLSSVTAADTAVYYCARGGGISRPEYWGKGTLVTVSSGGGGSGGGGSGGGGSALSSELTQDPPVSVALGQTVTLTCQGDSLRTYYASWYQQKSGQAPILLLYGKHKRPSGIPDRFSGSTSGDTASLTITGAQAEDEADYYCVARSVVGNPHVLFGGGTQLTVL
Key: 37.5
